Assay: liver-stage malaria parasite growth inhibition, primary screen, cell-based, HepG2, luciferase luminescence, HepG2 viability (AID 624349);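 note: 100% = mean of DMSO negative control wells on the same plate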
Conditions: P. berghei liver stage in HepG2, luciferase luminescence, concentration not given here
Active and inactive are the calls of the source. Cut-off read from the data, not from the text of the source: active = parasite load remaining mostly below about 12% (no sharp cut-off); inactive = mostly above about 10%.
Classes used: active, inactive

molecule: O=C(O)Cc1ccc(-c2ccccc2)cc1
answer-label: inactive

molecule: CC(O)Cn1cnc2c1c(=O)n(C)c(=O)n2C (stereo not drawn)
answer-label: inactive

molecule: CC[N+](C)(CC)CCOC(=O)C1c2ccccc2Oc2ccccc21
answer-label: inactive

molecule: COc1ccc(-c2oc3c(CC=C(C)C)c(O[C@@H]4O[C@H](CO)[C@@H](O)[C@H](O)[C@H]4O)cc(O)c3c(=O)c2O[C@@H]2O[C@@H](C)[C@H](O)[C@@H](O)[C@H]2O)cc1
answer-label: inactive

molecule: C1CCN2C[C@@H]3C[C@H](CN4CCCC[C@@H]34)[C@H]2C1
answer-label: inactive

molecule: CC[C@@H](C(=O)[C@@H](C)[C@@H](O)[C@H](C)CCc1ccc(C)c(O)c1C(=O)O)[C@H]1O[C@](CC)([C@H]2CC[C@](O)(CC)[C@H](C)O2)C[C@@H]1C
answer-label: active

molecule: CO/N=C(\C(=O)N[C@@H]1C(=O)N2C(C(=O)O)=C(COC(N)=O)CS[C@H]12)c1ccco1
answer-label: inactive

molecule: CCC[C@@H]1C[C@@H](C(=O)N[C@@H]([C@H]2O[C@H](SC)[C@H](O)[C@@H](O)[C@H]2O)[C@@H](C)O)N(C)C1
answer-label: inactive

* * *

Experiment: rescue of polyQ-huntingtin neuronal dysfunction in worms, whole organism, C. elegans mechanosensory neurons, N-terminal huntingtin (AID 1599)
Conditions: touch response, stronger effect = higher value
Entries with a potency or affinity are not part of this list.

compound: COC(=O)C1=C(C)NC(C)=C(C(=O)OCCN(C)Cc2ccccc2)C1c1cccc([N+](=O)[O-])c1 (stereo unspecified)
rescue above control: 19.4
//
compound: CC12CCC3c4ccc(OCc5ccccc5)cc4CCC3C1C[C@@H](O)[C@@H]2O (stereo partly specified)
rescue above control: 18.3
//
compound: CCN1CCCC1CNC(=O)c1cc(S(N)(=O)=O)ccc1OC (stereo unspecified)
rescue above control: 3.11
//
compound: O=c1cc(-c2ccccc2)oc2cc(O)cc(O)c12
rescue above control: 1.21
//
compound: CN/C(=C\[N+](=O)[O-])NCCSCc1ccc(CN(C)C)o1
rescue above control: -10.5
//
compound: CN[C@H](CC(=O)O)C(=O)O
rescue above control: -9

* * *

Tested on: F380Y/beta1
Assay: modulators of BK channel variants, profiling panel, selectivity assay, cell-based, U2OS BacMam, thallium flux, beta subunits (AID 1259406);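 note: initial slope of Thallos dye fluorescence rise after thallium is added; log ratio against the mean of 0.3% DMSO vehicle wells on the same plate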
Conditions: at 30 µM
Calls of active or inactive are those of the source.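 The calls were made as follows: active = thallium flux through the channel raised or lowered by more than 3 SD from vehicle-only wells, actives on both sides; inactive = the rest.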
Possible outcomes: active, inactive

compound: CNCCC(Oc1ccc(C(F)(F)F)cc1)c1ccccc1 (stereo unspecified)
answer-label: active

compound: Clc1ccccc1CN1CCc2sccc2C1
answer-label: active

compound: Cc1cccc(C)c1NC(=O)C1CCCCN1C (stereo unspecified)
answer-label: inactive

compound: O=C(O)COCCN1CCN(C(c2ccccc2)c2ccc(Cl)cc2)CC1 (stereo unspecified)
answer-label: inactive

compound: CS(=O)(=O)c1ccc(C2=C(c3ccccc3)C(=O)OC2)cc1
answer-label: inactive

compound: CC1(C)SC2C(NC(=O)COc3ccccc3)C(=O)N2C1C(=O)O (stereo unspecified)
answer-label: inactive

* * *

Target: Mitogen-activated protein kinase 7 (Homo sapiens) (UniProt Q13164)
Sequence (Q13164 whole entry, looked up, the tested form may be a part): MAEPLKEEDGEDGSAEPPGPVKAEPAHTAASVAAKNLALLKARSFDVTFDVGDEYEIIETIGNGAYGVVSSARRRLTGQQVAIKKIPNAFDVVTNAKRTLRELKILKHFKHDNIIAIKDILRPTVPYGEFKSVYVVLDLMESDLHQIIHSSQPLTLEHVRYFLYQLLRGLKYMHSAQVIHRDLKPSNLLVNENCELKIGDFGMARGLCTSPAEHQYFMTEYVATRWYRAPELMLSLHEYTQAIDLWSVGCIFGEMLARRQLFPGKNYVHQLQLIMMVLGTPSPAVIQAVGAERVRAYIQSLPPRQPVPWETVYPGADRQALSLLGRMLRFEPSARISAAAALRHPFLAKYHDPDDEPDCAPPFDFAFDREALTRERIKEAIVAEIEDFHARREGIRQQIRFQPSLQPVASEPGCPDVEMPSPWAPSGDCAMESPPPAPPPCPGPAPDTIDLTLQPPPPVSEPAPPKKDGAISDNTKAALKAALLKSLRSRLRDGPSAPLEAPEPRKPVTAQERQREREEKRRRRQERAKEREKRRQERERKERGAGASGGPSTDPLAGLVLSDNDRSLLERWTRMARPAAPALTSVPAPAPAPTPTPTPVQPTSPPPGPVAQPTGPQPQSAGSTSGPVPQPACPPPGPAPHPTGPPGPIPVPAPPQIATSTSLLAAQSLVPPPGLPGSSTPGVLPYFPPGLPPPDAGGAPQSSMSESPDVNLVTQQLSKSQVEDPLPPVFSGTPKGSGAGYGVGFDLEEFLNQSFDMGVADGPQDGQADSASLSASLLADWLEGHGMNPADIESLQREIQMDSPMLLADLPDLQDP
Experiment: ERK5 transactivation activators in reporter cells, primary screen, cell-based, HTS (AID 1508626);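 note: luciferase driven by Gal4-ERK5 fusion binding five Gal4 sites before minimal TATA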
Settings: HeLa Gal4-ERK5 transactivation, 18 h, at 5 µM
Calls of active or inactive are those of the source.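 The calls were made as follows: active = luciferase signal above three times the same-plate solvent-only control wells; inactive = the rest.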
Labels: active, inactive

compound: CCC[C@@H]1C[C@@H](C(=O)N[C@@H]([C@H]2O[C@H](SC)[C@H](O)[C@@H](O)[C@H]2O)[C@H](C)Cl)N(C)C1
answer-label: inactive
//
compound: NC(C(=O)O)C(O)C(=O)O (centres undefined)
answer-label: active
//
compound: COc1ccc(-c2coc3cc(O)ccc3c2=O)cc1
answer-label: inactive
//
compound: OC1(c2ccc(Cl)c(C(F)(F)F)c2)CCN(CCCC(c2ccc(F)cc2)c2ccc(F)cc2)CC1
answer-label: inactive
//
compound: CCn1nc(C(=O)O)c(=O)c2cc3c(cc21)OCO3
answer-label: inactive
//
compound: N[C@H]1C(O)O[C@H](CO)[C@@H](O)[C@@H]1O (some centres undefined)
answer-label: inactive
//
compound: O=C(O)/C=C/c1ccc(O)c(O)c1
answer-label: inactive
//
compound: COc1c(-c2coc3cc4c(cc3c2=O)CC(O)C(C)(C)O4)ccc2c1C=CC(C)(C)O2 (centres undefined)
answer-label: inactive
//
compound: CCC(C(=O)O)c1ccccc1 (centres undefined)
answer-label: inactive
//
compound: CC1(C)[C@@H]2CC[C@@]1(C)C(=O)C2
answer-label: inactive
//
compound: CCOC(=O)c1c(C)cc(O)cc1O
answer-label: inactive
//
compound: Cc1cc(=O)c2c(O)cc(O)c(C)c2o1
answer-label: inactive
//
compound: CN(C(=O)CN(CCO)CC(=O)N(C)C(C)(C)Cc1ccccc1)C(C)(C)Cc1ccccc1
answer-label: inactive
//
compound: CCCC(=O)O[C@]1(C(=O)CO)CC[C@H]2[C@@H]3CCC4=CC(=O)CC[C@]4(C)[C@H]3[C@@H](O)C[C@@]21C
answer-label: inactive
//
compound: CC12CCCC(O)(C1)C1CC(C)(C)C1CC2 (centres undefined)
answer-label: inactive
//
compound: OC1C(O)C(O)C(O)C(O)C1O (centres undefined)
answer-label: inactive
//
compound: C=C(C)CCCC(C)CCOC(C)=O (centres undefined)
answer-label: inactive
//
compound: COc1ccc2c(c1)OC/C(=C/c1ccc(OC)c(OC)c1)C2=O
answer-label: inactive
//
compound: COC(=O)/C(=C1/OC(=O)C(c2ccccc2)=C1O)c1ccccc1
answer-label: inactive
//
compound: COC(=O)C[C@H]1C(C)(C)[C@H](OC(C)=O)[C@@H]2CC3=C4CC(=O)O[C@@H](c5ccoc5)[C@]4(C)CC[C@@H]3C1(C)C2=O
answer-label: inactive
//
compound: COc1ccc(-c2coc3cc(OC)cc(OC)c3c2=O)cc1
answer-label: inactive
//
compound: COC(=O)c1c(C)cc(O)cc1O
answer-label: inactive
//
compound: CC1=CC2C(CC1=O)C(C)=CCC2C(C)C (centres undefined)
answer-label: inactive
//
compound: C[C@@H]1[C@H](O)[C@@H](C)/C=C/C=C/C=C/C=C/C=C/C=C/C=C/[C@H](O[C@@H]2O[C@H](C)[C@@H](O)[C@H](N)[C@@H]2O)C[C@@H]2O[C@](O)(C[C@@H](O)C[C@@H](O)[C@H](O)CC[C@@H](O)C[C@@H](O)CC(=O)O[C@H]1C)C[C@H](O)[C@H]2C(=O)O
answer-label: inactive
//
compound: NC(=NCc1ccccc1)NC(=O)c1nc(Cl)c(N)nc1N
answer-label: inactive
//
compound: COc1cc2c(c(OC)c1OC)-c1ccc(OC)c(=O)cc1[C@@H](NC(C)=O)CC2
answer-label: inactive
//
compound: O=C1CN(/N=C/c2ccc([N+](=O)[O-])o2)C(=O)N1
answer-label: inactive
//
compound: COc1cc(OC)c2c(c1Cl)O[C@@]1(C(=O)CC(=O)C[C@H]1C)C2=O
answer-label: inactive
//
compound: CCOc1ccc2nc(S(N)(=O)=O)sc2c1
answer-label: inactive
//
compound: CC(C)c1nc(N(C)S(C)(=O)=O)nc(-c2ccc(F)cc2)c1/C=C/[C@@H](O)C[C@@H](O)CC(=O)O
answer-label: inactive
//
compound: CCC(=O)OC1[C@@H]2CC3=C4CC(=O)O[C@@H](c5ccoc5)[C@]4(C)CCC3[C@@](C)(C2=O)[C@@H](CC(=O)OC)C1(C)C (some centres undefined)
answer-label: inactive
//
compound: COc1cccc(O)c1O
answer-label: inactive
//
compound: CC(=O)OC[C@H]1O[C@@H](Oc2cc(OC(C)=O)c3c(=O)cc(-c4ccc(OC(C)=O)cc4)oc3c2)[C@H](OC(C)=O)[C@@H](OC(C)=O)[C@@H]1OC(C)=O
answer-label: inactive
//
compound: NC(=O)c1cccc(N)c1
answer-label: inactive
//
compound: Cc1[nH]ccc2c1[nH]c1cc(=O)ccc12
answer-label: inactive
//
compound: CN[C@@H]1[C@@H](O[C@H]2O[C@H](CO)[C@@H](N)[C@H](O)[C@H]2O)O[C@H]2C[C@@H](N)[C@@H](O[C@H]3[C@H](O)[C@@H](O)[C@H](N)C[C@@H]3N)O[C@@H]2[C@@H]1O
answer-label: inactive
//
compound: N[C@@H](CSCSC[C@H](N)C(=O)O)C(=O)O
answer-label: inactive
//
compound: COc1cc(OC)c2c(=O)c(-c3ccccc3)coc2c1
answer-label: inactive
//
compound: CCCCC[C@@H](O)[C@H]1C(=O)O[C@H](C)[C@@H](O)/C=C/C=C/C=C/C=C/C=C(\C)[C@@H](O)C[C@H](O)C[C@H](O)C[C@H](O)C[C@H](O)C[C@H](O)C[C@@H]1O
answer-label: inactive
